system: MOLM-13; assay: cell viability (% survival relative to DMSO control, bortezomib = 0%); higher = less cytotoxic; settings: 10 nM; 72 h
Provide the recorded cell viability for the entries that follow.
Numbers only, in %.

In the examples that follow, each entry is paired with its recorded cell viability.
Query string: # lookup: cell viability of COc1cc(C2Oc3cc(C4Oc5cc(O)cc(O)c5C(=O)C4O)ccc3OC2CO)ccc1O (configuration not stated) [Silibinin]
Result string: 103

Query string: And the next one, CC(C)(F)C[C@H](N[C@@H](c1ccc(-c2ccc(S(C)(=O)=O)cc2)cc1)C(F)(F)F)C(=O)NC1(C#N)CC1 [Odanacatib] ?
Result string: 99.5

Query string: How about this compound: OCCN1C[C@H](O)[C@@H](O)[C@H](O)[C@H]1CO [Miglitol]
Result string: 91.3

Below are 4 compounds. Give each one its cell viability.
1. c1ccc2nc(-c3nnc4sc(-c5cnccn5)nn34)ccc2c1
2. O=C(Oc1ccc([N+](=O)[O-])cc1)N1CCC(C(O)(c2ccc3c(c2)OCO3)c2ccc3c(c2)OCO3)CC1 [JZL184]
3. c1ccc2c(c1)SCc1c-2[nH]c2ccccc12
4. C[C@H]1O[C@H](O[C@H]2[C@H](O)[C@@H](O)[C@@H](O[C@H]3[C@H](O)[C@@H](O)C(O)O[C@@H]3CO)O[C@@H]2CO)[C@H](O)[C@@H](O)[C@@H]1N[C@H]1C=C(CO)[C@@H](O)[C@H](O)[C@H]1O (mixture of isomers) [Acarbose]

Result string:
[108, 100, 87, 86.7]

---

test system: myeloid leukemia patient primary cells Pat.9; test: cell viability (% survival relative to DMSO control); higher = less cytotoxic; conditions: 10000 nM; 72 h
MEASUREMENT_NAME: cell viability (%)
One number for each entry, in %.

Query string: Look up cell viability: Cc1nnc(-c2ccc(N3CCC(Oc4ccccc4C(F)(F)F)CC3)nn2)s1 [MF-438]
Result string: 75.2

Query string: Ok, now O=C(Oc1cccc(F)c1OC(=O)c1cccc(O)c1)c1cccc(O)c1 [WZB117]
Result string: 2.92

Query string: Now try O=C(/C=C/c1cccnc1)NCCCCC1CCN(C(=O)c2ccccc2)CC1 [Daporinad] .
Result string: 0.773

Moving on to the next compound.
Query string: Which value of cell viability has been reported for CCC(CC#N)OC(=O)N[C@@H](C)c1cccc(NC(=O)Nc2ccc(-c3cnco3)c(OC)c2)c1 (stereo in doubt) [AVN-944] in the records?
Result string: 1.99

---

I'd be grateful if you could share measured cell viability for these entries.
test system: myeloid leukemia patient primary cells Pat.3; experiment: cell viability (% survival relative to DMSO control); higher = less cytotoxic; conditions: 10000 nM; 72 h
Numbers only, in %.

List reported cell viability for each of these compounds:
1. CCn1c(=O)/c(=C2\Sc3ccccc3N2C)s/c1=C\c1cccc[n+]1CC.[Cl-]
2. CCCCCCCCCCCCC/C=C/[C@@H](O)[C@H](CO)N(C)C

Result string:
1: 80.4; 2: 0.177

---

Please go through the items and note down their cell viability.
tested on: ML-2; experiment: cell viability (% survival relative to DMSO control, bortezomib = 0%); higher = less cytotoxic; settings: 1000 nM; 72 h
Answers are plain numbers, in %.

Check out these entries, answers already filled in.
Query string: Requested field: cell viability. Item: Cl.NC1=CCCN1Cc1nc(O)nc(O)c1Cl
Result string: 105

Query string: Follow-up entry: CN(C)C(=O)n1nnnc1Cc1ccc(-c2ccccc2)cc1
Result string: 69.2

Query string: And the next one, CCC(CC#N)OC(=O)N[C@@H](C)c1cccc(NC(=O)Nc2ccc(-c3cnco3)c(OC)c2)c1 (stereo in doubt) ?
Result string: 1.17

Query string: What do you get for O=C(c1c2ccccc2cc2ccccc12)N1CCC(N2CCC[C@@H](C(=O)N3CCOCC3)C2)CC1 ?
Result string: 98.5

Query string: Another compound to check: C[C@H]1O[C@H](O[C@H]2[C@H](O)[C@@H](O)[C@@H](O[C@H]3[C@H](O)[C@@H](O)C(O)O[C@@H]3CO)O[C@@H]2CO)[C@H](O)[C@@H](O)[C@@H]1N[C@H]1C=C(CO)[C@@H](O)[C@H](O)[C@H]1O (mixture of isomers)
Result string: 94.8

For each of the compounds below, state cell viability.
1. OC[C@H]1OC(O)C[C@@H](O)[C@@H]1O (stereo partly drawn)
2. CCCCCCCNC=O [N-Heptyl-Formamide]
3. Cc1nnc(-c2ccc(N3CCC(Oc4ccccc4C(F)(F)F)CC3)nn2)s1

Result string:
[89.4, 117, 117]

---

test system: MOLM-13; test: cell viability (% survival relative to DMSO control, bortezomib = 0%); higher = less cytotoxic; settings: 1 nM; 72 h
MEASUREMENT_NAME: cell viability (%)
Numbers only, in %.

# count of solved cases: 6
Query string: Endpoint output: cell viability of CC(C)(F)C[C@H](N[C@@H](c1ccc(-c2ccc(S(C)(=O)=O)cc2)cc1)C(F)(F)F)C(=O)NC1(C#N)CC1 . Value?
Result string: 128

Query string: Next record, please: O=C(Oc1cccc(F)c1OC(=O)c1cccc(O)c1)c1cccc(O)c1
Result string: 92.2

Query string: Try this compound next: Clc1cc(Cl)c(OCC#CI)cc1Cl
Result string: 100

Query string: Please do the same for CN(C)C(=O)n1nnnc1Cc1ccc(-c2ccccc2)cc1 as well.
Result string: 99

Query string: Item: N[C@@H](CCC(=O)N[C@@H](CS)C(=O)NCC(=O)O)C(=O)O
Result string: 111

Query string: Another: O=C(Cc1cccc(OC(F)(F)F)c1)Nc1ccc(CCCCc2nnc(NC(=O)Cc3ccccn3)s2)nn1
Result string: 123

For each of the compounds below, note its cell viability.
1. Cc1[nH]n(-c2ccccc2)c(=O)c1C1(C(F)(F)F)C(=O)N(c2ccccc2)C2=C1C(=O)CC(C)(C)C2 (stereo not given)
2. OCCN1C[C@H](O)[C@@H](O)[C@H](O)[C@H]1CO
3. CCC(CC#N)OC(=O)N[C@@H](C)c1cccc(NC(=O)Nc2ccc(-c3cnco3)c(OC)c2)c1 (stereo in doubt)
4. CCCC(CCC)C(=O)O

Result string:
91.4
92.1
130
105

---

system: HEL; assay: cell viability (% survival relative to DMSO control, bortezomib = 0%); higher = less cytotoxic; settings: 100 nM; 72 h
Provide the recorded cell viability for the entries that follow.
Please report the result as a number followed by the unit.

The cases that follow already have their cell viability on record.
Query string: Look up cell viability: N[C@@H](CCC(=O)N[C@@H](CS)C(=O)NCC(=O)O)C(=O)O
Result string: 96.1%

Query string: Next up: Cc1nnc(-c2ccc(N3CCC(Oc4ccccc4C(F)(F)F)CC3)nn2)s1
Result string: 106%

Query string: Query NCc1ccc(S(N)(=O)=O)cc1 [4-Homosulfanilamide] next
Result string: 99.3%

Query string: Note, next up: COc1cc(C2Oc3cc(C4Oc5cc(O)cc(O)c5C(=O)C4O)ccc3OC2CO)ccc1O (centres undefined)
Result string: 115%

Query string: Also Cl.OC[C@H]1NC[C@H](O)[C@@H](O)[C@H]1O , if possible.
Result string: 101%

Query string: Subsequent entry: CCCC(CCC)C(=O)O
Result string: 94.5%

Query string: And then CC(=O)N[C@@H](CS)C(=O)O , what is it?
Result string: 90%

Query string: Try this compound too: O=C(c1c2ccccc2cc2ccccc12)N1CCC(N2CCC[C@@H](C(=O)N3CCOCC3)C2)CC1
Result string: 110%

Others:
Query string: Which cell viability is reported for this compound? C=C1NC(=O)c2cc(CN(C)c3ccc(C(=O)N[C@@H](CCC(=O)O)C(=O)O)s3)ccc2N1
Result string: 6.54%

---

tested on: KCL-22; experiment: cell viability (% survival relative to DMSO control, bortezomib = 0%); higher = less cytotoxic; settings: 1000 nM; 72 h
I'd be grateful if you could share measured cell viability for these entries.
One number for each entry, in %.

The cases that follow already have their cell viability on record.
Query string: // lookup cell viability for O=C(Cc1cccc(OC(F)(F)F)c1)Nc1ccc(CCCCc2nnc(NC(=O)Cc3ccccn3)s2)nn1 [CB-839]
Result string: 55.4

Query string: Also O=c1oc2c(cc1O)oc(=O)c1cc(O)c(O)c(O)c12 [Galloflavin] , if possible.
Result string: 104

Query string: Now this one: O=C(/C=C/c1cccnc1)NCCCCC1CCN(C(=O)c2ccccc2)CC1 [Daporinad]
Result string: 1.35

Query string: What do we get for CC(C)c1ccc2c(c1)c(SC(C)(C)C)c(CC(C)(C)C(=O)O)n2Cc1ccc(Cl)cc1 [MK-886] ?
Result string: 89.7

Query string: Okay, and Cn1cc(C[C@@H](N)C(=O)O)c2ccccc21 [Indoximod] ?
Result string: 106

Query string: Same for O=NN(CCCl)C(=O)NCCCl [Carmustine]
Result string: 88.8

New cases:
Query string: May I ask what cell viability has been recorded for C[C@H]1O[C@H](O[C@H]2[C@H](O)[C@@H](O)[C@@H](O[C@H]3[C@H](O)[C@@H](O)C(O)O[C@@H]3CO)O[C@@H]2CO)[C@H](O)[C@@H](O)[C@@H]1N[C@H]1C=C(CO)[C@@H](O)[C@H](O)[C@H]1O (mixture of isomers) [Acarbose] ?
Result string: 86.5
